Provenance of the data: patent US5098613A

# measured-target: leukotriene B4 specific receptor on the membrane of human neutrophils (Homo sapiens)
# Construct: incubating neutrophils (1×10^7 cells) with 0.1-0.2 nM ^3 H-LTB4; endogenous in cells; host or cells: human peripheral blood neutrophils (buffy coats of two blood donors)
# Sequence (Q15722 whole entry): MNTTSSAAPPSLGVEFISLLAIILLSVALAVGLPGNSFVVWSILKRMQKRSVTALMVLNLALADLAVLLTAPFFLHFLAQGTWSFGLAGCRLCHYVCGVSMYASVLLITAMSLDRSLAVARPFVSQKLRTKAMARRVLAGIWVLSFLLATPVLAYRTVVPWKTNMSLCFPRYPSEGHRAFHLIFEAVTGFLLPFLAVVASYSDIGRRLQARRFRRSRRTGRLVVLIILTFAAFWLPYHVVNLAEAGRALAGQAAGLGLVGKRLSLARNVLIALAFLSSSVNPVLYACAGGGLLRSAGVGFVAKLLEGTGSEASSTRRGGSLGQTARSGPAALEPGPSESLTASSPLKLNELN
# protocol-notes: Inhibition of Binding of ^3 H-LTB4 to Peripheral Human Neutrophils
# study-conditions: drug concentration 10^-6 M; 4° C., 10 minutes
endpoint-name: inhibition at 1 µM (%)

> print(dat)
                                   compound                           measured.target       endpoint.name  units  observed.value
1  CCc1cc(C(C)=O)c(O)cc1OCCCCCCC(=O)O [Example 85]  leukotriene B4 specific receptor on the membrane of human neutrophils (Homo sapiens)  inhibition at 1 µM      %              37
2  CCCCCCc1cc(C(C)=O)c(O)cc1OCCCCC#N [Example 29]  leukotriene B4 specific receptor on the membrane of human neutrophils (Homo sapiens)  inhibition at 1 µM      %              12
3  C=CCc1cc(C(C)=O)c(O)cc1OCCCCC [Example 41]  leukotriene B4 specific receptor on the membrane of human neutrophils (Homo sapiens)  inhibition at 1 µM      %              22

1: CC(=O)c1cc(CO)c(OCCCCCCC#N)cc1O [Example 36]
2: CCc1cc(C(C)=O)c(O)cc1OCCCCc1nnn(CC(=O)O)n1 [Example 143]
Query block: Pick one: 1 or 2 . Which has the bigger inhibition at 1 µM number? State the label of the item chosen.
Result block: 2

a: C=CCCOc1cc(O)c(C(C)=O)cc1CC=C [Example 45]
b: C=CCc1cc(C(C)=O)c(O)cc1OCCCCCC(=O)NO [Example 100]
c: CCc1cc(C(C)=O)c(O)cc1OCCCCCNC(C)=O [Example 138]
Query block: Kindly order the items shown according to inhibition at 1 µM, from the highest value down. Returns: the labels arranged in the requested order.
Result block: c, b, a
